- system_name: PLK3 (S38-A340) (Homo sapiens, UniProt Q9H4B4)
- Construct: in the presence of 5 nM PLK3 (S38-A340)
- Sequence (Q9H4B4 58-340 limits assumed): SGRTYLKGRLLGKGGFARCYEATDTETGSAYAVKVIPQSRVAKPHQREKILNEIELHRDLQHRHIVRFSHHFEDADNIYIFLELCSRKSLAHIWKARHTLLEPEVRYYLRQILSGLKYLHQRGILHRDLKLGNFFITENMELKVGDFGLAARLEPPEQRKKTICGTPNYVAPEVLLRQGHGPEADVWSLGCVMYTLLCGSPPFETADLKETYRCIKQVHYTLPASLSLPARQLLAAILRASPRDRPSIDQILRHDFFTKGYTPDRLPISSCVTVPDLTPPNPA
- experiment_description: PLK3 Inhibition Assay (radioactive-phosphate incorporation)
- Assay type: biochemical
- test_settings: selectivity ratio, PLK3 over PLK1

[
  {
    "compound": "C[C@@H](Nc1ncc(C#N)c(-c2c[nH]c3ncc(C(F)(F)F)cc23)n1)c1ccc(N2CCN(C)CC2)cc1F",
    "value_prefix": "<",
    "Ki(PLK3)/Ki(PLK1)": 100
  },
  {
    "compound": "C[C@@H](Nc1ncc(C#N)c(-c2c[nH]c3ncc(C(F)(F)F)cc23)n1)c1ccc(N2CCN(C)CC2)c(F)c1",
    "value_prefix": "<",
    "Ki(PLK3)/Ki(PLK1)": 23
  },
  {
    "compound": "C[C@H]1CN(c2ccc([C@@H](C)Nc3ncc(C#N)c(-c4c[nH]c5ncc(C(F)(F)F)cc45)n3)cn2)CCN1",
    "value_prefix": "=",
    "Ki(PLK3)/Ki(PLK1)": 581
  },
  {
    "compound": "C[C@@H](Nc1ncc(C#N)c(-c2c[nH]c3ncc(C(F)(F)F)cc23)n1)c1cnc(N[C@H]2CCN(C)C2)nc1",
    "value_prefix": "=",
    "Ki(PLK3)/Ki(PLK1)": 141
  },
  {
    "compound": "CNCCNc1ccc(C(C)Nc2ncc(C#N)c(-c3c[nH]c4ncc(C(F)(F)F)cc34)n2)cn1 (stereo not drawn)",
    "value_prefix": "=",
    "Ki(PLK3)/Ki(PLK1)": 142
  },
  {
    "compound": "CC(Nc1ncc(C#N)c(-c2c[nH]c3ncc(C(F)(F)F)cc23)n1)c1ccc(N2CCNCC2)cc1 (stereo not drawn)",
    "value_prefix": "=",
    "Ki(PLK3)/Ki(PLK1)": 185
  },
  {
    "compound": "C[C@H](Nc1ncc(C#N)c(-c2c[nH]c3ncc(C(F)(F)F)cc23)n1)c1ccc(N2CCN(C)CC2)nc1",
    "value_prefix": "=",
    "Ki(PLK3)/Ki(PLK1)": 70
  },
  {
    "compound": "CC(Nc1ncc(C#N)c(-c2c[nH]c3ncc(C(F)(F)F)cc23)n1)c1ccc(N[C@@H]2CCNC2)nc1 (stereo partly drawn)",
    "value_prefix": "=",
    "Ki(PLK3)/Ki(PLK1)": 14
  },
  {
    "compound": "CC(Nc1ncc(C#N)c(-c2c[nH]c3ncc(C(F)(F)F)cc23)n1)c1ccc(N2CCN(C)CC2)nc1 (stereo not drawn)",
    "value_prefix": "=",
    "Ki(PLK3)/Ki(PLK1)": 456
  }
]

* * *

- system_name: UniProt P53350
- Sequence (P53350 whole entry): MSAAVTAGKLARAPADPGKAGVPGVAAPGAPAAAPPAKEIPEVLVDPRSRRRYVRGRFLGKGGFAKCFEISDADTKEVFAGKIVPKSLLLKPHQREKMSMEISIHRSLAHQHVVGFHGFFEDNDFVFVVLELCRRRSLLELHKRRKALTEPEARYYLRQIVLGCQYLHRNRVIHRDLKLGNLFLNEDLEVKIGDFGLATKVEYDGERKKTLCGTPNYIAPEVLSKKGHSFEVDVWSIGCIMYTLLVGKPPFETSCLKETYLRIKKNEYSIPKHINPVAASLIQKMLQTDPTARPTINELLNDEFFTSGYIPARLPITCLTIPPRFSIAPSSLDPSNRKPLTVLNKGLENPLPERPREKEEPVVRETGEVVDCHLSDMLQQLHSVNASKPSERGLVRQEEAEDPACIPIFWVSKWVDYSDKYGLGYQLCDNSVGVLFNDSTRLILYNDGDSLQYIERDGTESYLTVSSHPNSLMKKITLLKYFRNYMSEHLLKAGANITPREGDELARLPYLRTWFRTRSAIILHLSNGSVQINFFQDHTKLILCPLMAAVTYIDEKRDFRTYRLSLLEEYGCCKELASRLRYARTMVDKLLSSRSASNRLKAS
The following compounds are shown together with reported Ki values.
readout_type: Ki

[
  {
    "smiles_data": "N#Cc1cnc(SCCc2ccccc2)nc1-c1c[nH]c2ncc(C(F)(F)F)cc12",
    "system_name": "UniProt P53350",
    "result": "> 0.04 µM"
  },
  {
    "smiles_data": "N#Cc1cnc(NCc2ccccc2F)nc1-c1c[nH]c2ncc(C(F)(F)F)cc12",
    "system_name": "UniProt P53350",
    "result": "> 0.04 µM"
  },
  {
    "smiles_data": "CC(C)[C@@H](N)C(=O)N1CCC([C@@H](C)Nc2ncc(C#N)c(-c3c[nH]c4ncc(C(F)(F)F)cc34)n2)CC1",
    "system_name": "UniProt P53350",
    "result": "< 0.003 µM"
  },
  {
    "smiles_data": "CNC(=O)c1cccc(Nc2cnc3[nH]cc(-c4nc(NC(C)C)ncc4C#N)c3c2)c1",
    "system_name": "UniProt P53350",
    "result": "0.003 to 0.04 µM"
  },
  {
    "smiles_data": "CNCCCN(C)c1ccc([C@@H](C)Nc2ncc(C#N)c(-c3c[nH]c4ncc(C(F)(F)F)cc34)n2)cn1",
    "system_name": "UniProt P53350",
    "result": "< 0.003 µM"
  }
]
